Target: T1, huB7-H3 (Homo sapiens, UniProt Q5ZPR3)
T1 construct: His tag (6xHis) (C)
T1 sequence (Q5ZPR3 with tags, fused parts or gaps): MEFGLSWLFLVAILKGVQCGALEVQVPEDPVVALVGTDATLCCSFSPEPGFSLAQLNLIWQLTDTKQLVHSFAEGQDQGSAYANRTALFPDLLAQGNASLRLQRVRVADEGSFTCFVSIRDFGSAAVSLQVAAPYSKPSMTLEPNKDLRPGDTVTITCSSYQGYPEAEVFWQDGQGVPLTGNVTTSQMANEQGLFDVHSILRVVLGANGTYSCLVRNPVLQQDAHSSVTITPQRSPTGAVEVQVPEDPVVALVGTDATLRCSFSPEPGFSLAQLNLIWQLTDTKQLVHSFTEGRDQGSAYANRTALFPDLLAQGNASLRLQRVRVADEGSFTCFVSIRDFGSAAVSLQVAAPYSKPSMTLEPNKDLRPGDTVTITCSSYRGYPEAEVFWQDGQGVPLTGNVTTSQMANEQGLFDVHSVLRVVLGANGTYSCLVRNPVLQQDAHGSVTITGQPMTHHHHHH
Assay: Biacore T200 SPR binding kinetics, mAb capture
Details: Table 3
Protocol: The binding affinity of the purified anti-B7-H3 monoclonal antibodies was determined by surface […]. […] The binding kinetics were derived from SPR measurements using a Biacore T200 instrument and a mAb capture approach (as described in the materials and methods below). Biacore T200 SPR instruments were used to measure the binding kinetics of human B7-H3 (4Ig-B7-H3 variant) (analyte) binding to various mAbs (ligands). […]
Each item that follows carries a reported huB7-H3 ka(1/Ms).
Value expressed in M⁻¹ s⁻¹; do not type the unit.

input: Requested field: huB7-H3 ka(1/Ms). Item: Ab8: mouse hybridoma anti-B7-H3 monoclonal antibody, mouse IgG1/k (antibody, V domains shown) VH: EVKLVESGGGLVKPGGSLKLSCAASGFTFSSYGMSWVRQTPEKRLEWVATISGGGNYTYCPDSVKGRFTISRDNAKNNLYLQMSSLRSEDTALYYCTRQRGYDYHYAMDFWGQGTSVTVSS VL: DIQMTQSPASLSVSVGETVTITCRASENIYSNLAWHQQKQGKSPQLLVYAATNLADGVPSRFSGNGSDTQYSLKINSLQSEDFGSYFCQNFWGTSWTFGGGTKLEIK
output: 58000

input: Entry Ab13: mouse hybridoma anti-B7-H3 monoclonal antibody, mouse IgG1/k (antibody, V domains shown) VH: DVQLQESGPDLVKPSQSLSLTCTVTGYSITSGYSWHWIRQFPGNKLEWMGYIHSSGSTNYNPSLKSRISINRDTSKNQFFLQLNSVTTEDTATYYCAGYDDYFEYWGQGTTLTVSS VL: DIVMTQSQKFMSTSVGDRVSVTCKASQNVGFNVAWYQQKPGQSPKALIYSASYRYSGVPDRFTGSGSGTDFTLTISNVQSEDLAEYFCQQYNSYPFTFGSGTKLEIK : reported huB7-H3 ka(1/Ms) = ?
output: 330000

input: Give its huB7-H3 ka(1/Ms) value. Item: Ab5: mouse hybridoma anti-B7-H3 monoclonal antibody, mouse IgG1/k (antibody, V domains shown) VH: QVQLQQPGDELVKPGASVKLSCKTSGYTFTTDWMHWVKQRPGQGLEWIGMIHPNSGTTNYNEKFKSKAALTVDKSSSTACMQLSSLTSEDSAVYYCARSYWKWYFDVWGTGTTVTVSS VL: QIVLTQSPAIMSASLGEEITLTCSASSSVSYMHWYQQKSGTSPKLLIYSTSNLASGVPSRFSGSGSGTFYSLTISSVEAEDSADYYCHQWTSYMYTFGGGTKLEIK
output: 1.3e+06

input: Which huB7-H3 ka(1/Ms) value is on record for Ab14: mouse hybridoma anti-B7-H3 monoclonal antibody, mouse IgG1/k (antibody, V domains shown) VH: EVKLVESGGGLVKPGGSLKLSCAASGFTFSSYGMSWVRQTPEKRLEWVATISGGGTNTYYPDSVEGRFTISRDNAKNFLYLQMSSLRSEDTALYYCARHYGSQTMDYWGQGTSVTVSS VL: DIQMTQSPASLSASVGETVTITCRTSGNIHNYLTWYQQKQGKSPQLLVYNAKTLADGVPSRFSGSGSGTQFSLKINSLQPEDFGSYYCQHFWSIMWTFGGGTKLEIK ?
output: 110000

Data provenance: patent US20200002421A1
